B1: tRNA (parent)
chain: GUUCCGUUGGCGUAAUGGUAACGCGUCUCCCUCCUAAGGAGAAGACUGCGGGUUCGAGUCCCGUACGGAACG

- Variants of: B1
- Experimental Protocol: yeast fitness relative to wild type (ratio to wild type); higher = fitter; tRNA-Arg(CCU), competitive growth, 37 C, YPD
This sample holds only a part of the variants without activity.
Hi there, I'd appreciate the recorded yeast fitness for every entry that follows.
One number for each entry.

Examples from the recorded data:
GCUCCGUUGGCGUAAUGGUAACGCGUCUCCCUCCUAAGUAGAAGACUGCGGGUUCGAGUCCCGUACGGAACG [U2C G39U] = 0.819
GUUCCGUUGGCGUAAUGGUAACGCGUCUCCCUCCUAAGGAGGAGACUGCGAGUUCGAGUCCCGUACGGAACG [A42G G51A] = 0.822

Please turn your attention to the following entry.
Qu. What measured yeast fitness goes with GUUCCGUUGGCGUAAUGGUAAAGCGUCUCCCUCCUAAGGAGAGGACUGCGGGUUCGAGUCCCGUACGGAACG [C22A A43G] ?
Ans. 0.809

These entries and their values trace back to the RNAGym collection of RNA variant scans (doi:10.1126/science.aae0568).
